# study.system: hSOS1 (hSOS1-mediated nucleotide exchange of hK-RasG12C) (Homo sapiens)
# Construct: hSOS1 (amino acid 564-1049); made in house; host or cells: E. coli BL21 (DE3)
# Sequence (Q07889 with tags, fused parts or gaps): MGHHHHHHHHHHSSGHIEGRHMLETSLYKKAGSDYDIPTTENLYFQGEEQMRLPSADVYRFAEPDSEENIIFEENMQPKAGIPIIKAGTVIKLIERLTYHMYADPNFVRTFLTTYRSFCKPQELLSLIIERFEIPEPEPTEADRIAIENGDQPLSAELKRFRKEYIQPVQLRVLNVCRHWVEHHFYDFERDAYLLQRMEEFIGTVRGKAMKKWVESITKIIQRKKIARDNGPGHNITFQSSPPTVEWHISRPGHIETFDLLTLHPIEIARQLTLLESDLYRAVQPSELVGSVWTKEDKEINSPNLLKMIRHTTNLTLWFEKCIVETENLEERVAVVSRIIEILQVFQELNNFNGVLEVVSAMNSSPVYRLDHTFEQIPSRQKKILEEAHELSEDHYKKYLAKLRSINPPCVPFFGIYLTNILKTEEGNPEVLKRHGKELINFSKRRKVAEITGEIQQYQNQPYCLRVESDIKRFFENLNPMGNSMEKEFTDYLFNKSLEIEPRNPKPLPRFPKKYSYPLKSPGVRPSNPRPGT
# assay.comment: Biochemical Assay 2: hK-RasG12C activation assay by hSOS1 at high GTP concentration (HTRF nucleotide exchange)
# assay.conditions: high GTP (50 μM GTP)
# Experimental: Biochemical Assay 2: hK-RasG12C Activation Assay by hSOS1 at High GTP Concentration This assay quantifies human SOS1-mediated nucleotide exchange of human K-Ras^G12C (hK-RasG12C) preloaded with a fluorescent […] and in presence of an excess of free GTP. […] All steps of the assay were performed at 20° C. […] After 20 min. incubation the fluorescence was measured with a Pherastar (BMG, Germany) using the HTRF module (excitation 337 nm, emission 1:620 nm, emission 2:665 nm). […]
Category | rule: reported IC50 within range, see 0 (below 200 nM), 1 (200 nM to below 400 nM), 2 (400 nM or more)

Examples with answers:
| compound | assigned.label |
| --- | --- |
| CCOc1ccc2nc(C)nc(N[C@H](C)c3cccc(Br)c3)c2n1 | 2 |
| Cc1nc(NC(C)c2ccc(-c3ccccc3CN(C)C)s2)c2cc(OC3CCS(=N)(=O)CC3)ncc2n1 (stereo not drawn) | 0 |

Q: Which category fits this record: CC(=O)N(c1cccc(C(=O)NC2CN(c3cc4c(NC(C)c5ccc(-c6ccccc6CN(C)C)s5)nc(C)nc4cn3)C2)c1)[C@@H]1CCN(C(=O)OC(C)(C)C)C1 (stereo partly drawn)
A: 1

Q: Which category fits this record: Cc1nc(NC(C)c2ccc(-c3ccccc3CN(C)C)s2)c2cc(N3CC(NC(=O)Nc4ccccc4)C3)ncc2n1 (stereo not drawn)
A: 1

Q: Which category fits this record: `Cc1nc(N[C@H](C)c2ccc(F)cc2)c2cc(OCC3CCOCC3)ncc2n1`
A: 2

Q: Which category fits this record: CC(=O)NC1CCN(c2cc3c(N[C@H](C)c4cccc(Br)c4)nc(C)nc3cn2)C1 (mixture of isomers)
A: 1

Q: Which category fits this record: Cc1nc(NC(C)c2ccc(-c3ccccc3CN(C)C)s2)c2cc(C3CCN(C)C3=O)ncc2n1 (mixture of isomers)
A: 0

Q: Which category fits this record: `Cc1nc(N[C@H](C)c2cccc(Br)c2)c2nc(Oc3ccccc3)ncc2n1`
A: 2

Q: Which category fits this record: Cc1nc(NC(C)c2ccc(-c3ccccc3CN(C)C)s2)c2cc(N3CC(NS(=O)(=O)Cc4ccccc4)C3)ncc2n1 (stereo not drawn)
A: 1

Q: Which category fits this record: CNCc1ccccc1-c1ccc(C(C)Nc2nc(C)nc3cnc(F)cc23)s1 (stereo not drawn)
A: 2

Q: Which category fits this record: CCOc1cc2c(NC(C)c3cccc4sccc34)nc(C)nc2cn1 (stereo not drawn)
A: 1

====

# study.system: hK-RasG12C - hSOS1 interaction (Homo sapiens, UniProt Q07889)
# Construct: hSOS1 (amino acid 564-1049); made in house; host or cells: E. coli BL21 (DE3)
# assay.comment: Biochemical Assay 1: hK-RasG12C interaction assay with hSOS1 (HTRF)
# Type: binding
# assay.conditions: read-out: Assay 1 (hKRAS, hSOS Interaction) activity (expressed as IC50, or as % inhibition at 20 μM)
Reported inhibition at 20 µM values are given for each entry in this list.
The reply should contain only the number, in %.

| compound | value.unit | value |
| --- | --- | --- |
| Cc1nc(NC(C)c2ccc(Br)s2)c2cc(F)ncc2n1 (stereo not shown) | % | 23.5 |
| Cc1nc(N[C@H](C)c2ccc(F)cc2)c2cc(F)ncc2n1 | % | 54 |
| Cc1nc(NC(C)c2ccc(-c3ccccc3CO)s2)c2cc(F)ncc2n1 (stereo not shown) | % | 43.8 |

Query `COc1ccc2nc(C)nc(N[C@H](C)c3cccc(Br)c3)c2n1` yields inhibition at 20 µM of 49.8

Query `Cc1nc(N[C@H](C)c2cccc(Br)c2)c2nc(OCc3ccccc3)ncc2n1` yields inhibition at 20 µM of 30

Query `Cc1nc(N[C@H](C)c2cccc(Br)c2)c2cc(F)ncc2n1` yields inhibition at 20 µM of 36.7

Query `Cc1nc(N[C@H](C)c2cccc(Br)c2)c2nc(Oc3ccccc3)ccc2n1` yields inhibition at 20 µM of 22.4

Query `Cc1nc(N[C@H](C)c2cccc(Br)c2)c2nc(N(C)C)ncc2n1` yields inhibition at 20 µM of 26.3

Query `Cc1nc(N[C@H](C)c2cccc(Br)c2)c2nc(OCc3ccccc3)ccc2n1` yields inhibition at 20 µM of 29.3

Query `Cc1nc(N[C@H](C)c2cccc(Br)c2)c2nc(Oc3ccccc3)ncc2n1` yields inhibition at 20 µM of 23.7

====

# study.system: hK-RasG12C - hSOS1 interaction (Homo sapiens)
# Construct: hSOS1 (amino acid 564-1049); made in house; host or cells: E. coli BL21 (DE3)
# Sequence (Q07889 with tags, fused parts or gaps): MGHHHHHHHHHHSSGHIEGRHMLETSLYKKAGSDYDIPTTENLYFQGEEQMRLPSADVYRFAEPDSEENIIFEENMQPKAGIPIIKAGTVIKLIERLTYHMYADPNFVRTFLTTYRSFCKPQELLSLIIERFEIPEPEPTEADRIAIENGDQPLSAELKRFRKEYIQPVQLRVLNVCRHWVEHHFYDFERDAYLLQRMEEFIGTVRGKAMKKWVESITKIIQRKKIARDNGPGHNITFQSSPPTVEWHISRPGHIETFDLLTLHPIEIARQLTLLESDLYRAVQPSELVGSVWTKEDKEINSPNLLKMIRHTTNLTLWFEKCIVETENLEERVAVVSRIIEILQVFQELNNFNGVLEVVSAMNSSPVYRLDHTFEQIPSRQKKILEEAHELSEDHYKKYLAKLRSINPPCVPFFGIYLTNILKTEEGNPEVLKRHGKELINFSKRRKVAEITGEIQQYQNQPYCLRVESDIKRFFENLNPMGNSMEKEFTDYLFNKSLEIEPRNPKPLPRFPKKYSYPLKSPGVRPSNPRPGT
# assay.comment: Biochemical Assay 1: hK-RasG12C interaction assay with hSOS1 (HTRF)
# Type: binding
# assay.conditions: values expressed as IC50
Reported pIC50 values are given for each entry in this list.
In plain terms, pIC50 is the concentration in mol/L turned into minus its base-10 logarithm.

# example entries with known answers
| compound | value |
| --- | --- |
| Cc1nc(NC(C)c2ccc(-c3ccccc3CN(C)C)s2)c2cc(OCCCO)ncc2n1 (centres unmarked) [Example 76] | 7.34 |
| COCCOc1ccc2nc(C)nc(N[C@H](C)c3cccc(Br)c3)c2n1 [Example 30] | 5.27 |
| COCCOc1ncc2nc(C)nc(N[C@H](C)c3cccc(Br)c3)c2n1 [Example 26] | 5.56 |
| Cc1nc(N[C@H](C)c2cccc(Br)c2)c2cc(Oc3cccc(O)c3)ncc2n1 [Example 40] | 4.88 |

Switching to the query record.
Query CNCc1ccccc1-c1ccc(C(C)Nc2nc(C)nc3cnc(Oc4ccc(N5CCCC5=O)cc4)cc23)s1 (centres unmarked) [Example 38] yields pIC50 of 6.66

====

Reported pIC50 values are given for each entry in this list.
# study.system: hSOS1 (hSOS1-mediated loading of hK-RasG12C-GDP) (Homo sapiens, UniProt Q07889)
In plain terms, pIC50 is the concentration in mol/L turned into minus its base-10 logarithm.

| compound | pIC50 |
| --- | --- |
| Cc1nc(NC(C)c2ccc(-c3ccccc3CN(C)C)s2)c2cc(N3CC(NC(=O)N4CCS(=O)(=O)CC4)C3)ncc2n1 (stereo not drawn) | 6.81 |
| Cc1nc(NC(C)c2ccc(-c3ccccc3CN(C)C)s2)c2cc(N3CC(NC(=O)Cc4ccccc4)C3)ncc2n1 (stereo not drawn) | 6.88 |

Noted pIC50 for Cc1nc(NC(C)c2ccc(-c3ccccc3CN(C)C)s2)c2cc(OCCCO)ncc2n1 (stereo not drawn) , tested on hSOS1 (hSOS1-mediated loading of hK-RasG12C-GDP) (Homo sapiens, UniProt Q07889): 7.14

Noted pIC50 for `Cc1nc(N[C@H](C)c2ccc(F)cc2)c2cc(OC(C)C)ncc2n1` , tested on hSOS1 (hSOS1-mediated loading of hK-RasG12C-GDP) (Homo sapiens, UniProt Q07889): 5.06

Noted pIC50 for `Cc1nc(N[C@H](C)c2cccc(Br)c2)c2cc(OCCCN(C)C)ncc2n1` , tested on hSOS1 (hSOS1-mediated loading of hK-RasG12C-GDP) (Homo sapiens, UniProt Q07889): 5.87

Noted pIC50 for Cc1nc(NC(C)c2ccc(-c3ccccc3CN(C)C)s2)c2cc(C3(O)CCN(C)C3=O)ncc2n1 (mixture of isomers) , tested on hSOS1 (hSOS1-mediated loading of hK-RasG12C-GDP) (Homo sapiens, UniProt Q07889): 6.67

Noted pIC50 for `CCOc1cc2c(N[C@H](C)c3cccc(Br)c3)nc(C)nc2cn1` , tested on hSOS1 (hSOS1-mediated loading of hK-RasG12C-GDP) (Homo sapiens, UniProt Q07889): 5.67

Noted pIC50 for `CC(=O)NCCOc1cc2c(N[C@H](C)c3cccc(Br)c3)nc(C)nc2cn1` , tested on hSOS1 (hSOS1-mediated loading of hK-RasG12C-GDP) (Homo sapiens, UniProt Q07889): 6.13
